The values you see were collected from PubChem BioAssay (NCATS).

- Test system: HB3
- protocol: qHTS profiling for inhibitors of Plasmodium falciparum proliferation (AID 504749); note: nearly all actives have a fitted effect of over 60% in size
- measurementContext: P. falciparum in erythrocytes, SYBR Green DNA, 72 h; series mostly up to 28.7 µM
Inconclusive results are not listed. The source made the active and inactive calls. Calls come from the whole dose curve; as a rule, active = well fitted inhibition curve with a large enough effect; inconclusive = small, poorly fitted or top-dose-only effect; inactive = flat fitted curve, though single readings scatter.
Field 'call' accepts True for active, False for inactive

compound	target	classification
O=C(CCCN1CCC(n2c(=O)[nH]c3ccccc32)CC1)c1ccc(F)cc1	HB3	True
C[C@]12Cc3nonc3C[C@@H]1CC[C@@H]1[C@@H]2CC[C@@]2(C)[C@H]1CC[C@]2(C)O	HB3	False
COC(=O)C1=CCCN(C)C1	HB3	False
Oc1c(Br)cc(Br)cc1Br	HB3	False
NC(=O)OCCCc1ccccc1	HB3	False

Recorded test call requested for `CCC1(CC)C(=O)NC(=O)NC1=O`
False

Record: `c1cc2c(c(N3CCNCC3)c1)OCCO2`
False

Next record, please: `Nc1ccc(N)cc1`
False

Same read-out for `CCNc1nc(Cl)nc(NCC)n1` ?
False

Now the compound CC(C)C(Br)C(=O)NC(N)=O (stereo not given)
False

---

- Test system: CP286
- protocol: qHTS profiling for inhibitors of Plasmodium falciparum proliferation (AID 504749); note: nearly all actives have a fitted effect of over 60% in size; note: potency is the fitted concentration of half-maximal effect
- measurementContext: P. falciparum in erythrocytes, SYBR Green DNA, 72 h; series mostly up to 28.7 µM
Results filed as inconclusive are left out. Calls of active or inactive are those of the source. The call rests on the fitted dose curve; in most records, active means well fitted inhibition curve with a large enough effect; inconclusive means small, poorly fitted or top-dose-only effect; inactive means flat fitted curve, though single readings scatter.
observationType: Potency

molecule	target	Potency
CN(C)C(=S)SSC(=S)N(C)C	CP286	1.26 µM (active)
CCOC(=O)NC(O)C(Cl)(Cl)Cl (stereo not given)	CP286	inactive
C[C@H]1C(=O)O[C@@H]2CCN3CC=C(COC(=O)[C@](C)(O)[C@]1(C)O)[C@H]23	CP286	inactive
COc1ccc(CN2CCNCC2)c(OC)c1OC	CP286	inactive
C[N+]1(CCC(C(N)=O)(c2ccccc2)c2ccccc2)CCCCC1	CP286	inactive
CC(C)[N+](C)(CCC(C(N)=O)(c1ccccc1)c1ccccc1)C(C)C	CP286	inactive
CCC(=O)O[C@H]1CC[C@H]2[C@@H]3CCC4=CC(=O)CC[C@]4(C)[C@H]3CC[C@]12C	CP286	inactive
C[C@]12CC[C@H]3[C@@H](CC=C4C[C@@H](O)CC[C@@]43C)[C@@H]1CC[C@@H]2O	CP286	inactive
CC(C)(O)C(Cl)(Cl)Cl	CP286	5.62 µM (active)
COC(=O)C1=CCCN(C)C1	CP286	inactive

State the recorded Potency for this entry: `C[C@]12Cc3nonc3C[C@@H]1CC[C@@H]1[C@@H]2CC[C@@]2(C)[C@H]1CC[C@]2(C)O`
inactive

Also, CC(C)C(Br)C(=O)NC(N)=O (stereo not given) please.
inactive

Same for `CCC1(CC)C(=O)NC(=O)NC1=O`
inactive

Now consider C=CCOC(Cn1ccnc1)c1ccc(Cl)cc1Cl (stereo not given) .
11.2 µM (active)

How about this molecule: `COP(=O)(OC)OC=C(Cl)Cl`
inactive

How about `OC(O)C(Cl)(Cl)Cl` ?
inactive

How about `O=C1NCN(c2ccccc2)C12CCN(CCCOc1ccc(F)cc1)CC2` ?
12.6 µM (active)

Next: `CCCCCCCCCCCC[N+](C)(C)CCOc1ccccc1`
2.51 µM (active)

---

- protocol: qHTS of pediatric cancer cell lines to identify multiple opportunities for drug repurposing: Primary screen for Rh41 cells (AID 1347108);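 note: luminescence drop marks cytotoxic hits; nearly all actives have a fitted effect of over 70% in size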
- measurementContext: Rh41 rhabdomyosarcoma viability, CellTiter-Glo luminescence, 48 h; series mostly up to 46 µM
Inconclusive results are not listed. The source made the active and inactive calls. The call rests on the fitted dose curve; in most records, active means well fitted cell-killing curve with a large enough effect; inconclusive means small, poorly fitted or top-dose-only effect; inactive means no such curve, though single readings can be large or run the other way.
Just give me one of these, please: 1 (active), -1 (inactive)

compound	classification
CNC(=O)NC(O)C(Cl)(Cl)Cl (centres undefined)	-1
Nc1ccccc1C(=O)OCC(O)CO (centres undefined)	-1
CC(C(O)c1ccccc1)N(C)C/C=C/c1ccccc1 (centres undefined)	-1
CN1C2CCC(C)(C)C1CC(OC(=O)C(O)(c1cccs1)c1cccs1)C2 (centres undefined)	-1

What call does the record list for `COP(=S)(OC)Oc1ccc(S(N)(=O)=O)cc1` ?
-1

What about C[N+]1(C)[C@@H]2CC[C@H]1CC(OC(=O)C(CO)c1ccccc1)C2 (some centres undefined) ?
-1

Item: CCCC[N+]1(C)[C@@H]2CC(OC(=O)[C@H](CO)c3ccccc3)C[C@H]1[C@@H]1O[C@@H]12 (some centres undefined)
-1

Consider next the compound O=C(NC(=O)c1c(F)cccc1F)Nc1cc(Cl)c(OC(F)(F)C(F)C(F)(F)F)cc1Cl (centres undefined) in the same way.
-1

Again, but for COP(=O)(OC)C(O)C(Cl)(Cl)Cl (centres undefined)
-1

Now try CC(Cc1ccccc1)NCc1ccccc1Cl (centres undefined) .
-1

Can you handle `NC(=O)CN1CCCC1=O` next?
-1

Same for `COc1ccc(C(=O)N2CCCC2=O)cc1`
-1

---

- System: ICS
- protocol: qHTS profiling for inhibitors of Plasmodium falciparum proliferation (AID 504749); note: nearly all actives have a fitted effect of over 60% in size
- measurementContext: P. falciparum in erythrocytes, SYBR Green DNA, 72 h; series mostly up to 28.7 µM
Records with an inconclusive call do not appear. Active and inactive are the calls of the source. The call rests on the fitted dose curve; in most records, active means well fitted inhibition curve with a large enough effect; inconclusive means small, poorly fitted or top-dose-only effect; inactive means flat fitted curve, though single readings scatter.
Thanks in advance; please answer with one of these: class 1 = active, class 0 = inactive

compound	classification
c1ccc2nc(N3CCNCC3)ccc2c1	class 0
CCOC(=O)NC(O)C(Cl)(Cl)Cl (stereo not given)	class 0

Dear colleague, could you share the recorded outcome for `Oc1ccc2[nH]cc(CCCCN3CC=C(c4ccccc4)CC3)c2c1` when you have a moment?
class 1

Follow-up item: `COc1ccc(C(=O)N2CCCC2=O)cc1`
class 0

Ok, now `Oc1c(Br)cc(Br)cc1Br`
class 0

---

- measurementContext: Ebola virus entry assay, reporter ratio channel; Channel type: primary
The source made the active and inactive calls.
Write down one outcome, taken from true (1) for active, false (0) for inactive

Consider the worked cases shown below.
compound	classification
CN(C)CCN1C(=O)c2ccccc2N(C)c2ccccc21	true (1)
Clc1ccc2c(c1)CCc1cccnc1C2=C1CCNCC1	true (1)
Cc1c(Cl)cccc1Nc1ccccc1C(=O)O	false (0)

As a next step, examine the compound that follows.
Dear colleague, could you share the recorded outcome for `CCCCOC(=O)CCCCCCCCC(=O)OCCCC` when you have a moment?
false (0)

---

- measurementContext: Ebola virus entry assay, blue channel fluorescence
Activity calls are given as the source filed them.
// classify into active, inactive

compound	classification
Cc1nnc2n1-c1sc(CCc3ccc(CC(C)C)cc3)cc1C(c1ccccc1Cl)=NC2C (stereo not drawn)	active
O=C1O[C@H]([C@@H](O)CO)C(O)=C1O	inactive

In this assay, the call recorded for Cc1cc2c(OCC(CNC(C)(C)C)OC(=O)c3ccccc3)cccc2[nH]1 (stereo not drawn) was what?
active

Ok, now CCCCC/C=C\C/C=C\CCCCCCCC(=O)NC(C)c1ccccc1 (stereo not drawn)
inactive

Please answer likewise for `O=[N+]([O-])c1nccn1CO[C@@H](CO)[C@H](O)CO`
inactive

Next record, please: `O=C(Nc1ccc([N+](=O)[O-])cc1Cl)c1cc(Cl)ccc1O`
active

Input `CCCNC(C)(C)COC(=O)c1ccccc1`
inactive

Now this one: `CCN(Cc1ccc(Cl)nc1)/C(=C/[N+](=O)[O-])NC`
inactive

What do you get for `OCc1ccccc1O` ?
inactive

Next: CCN1CCCC1CNC(=O)C(O)(c1ccccc1)c1ccccc1 (stereo not drawn)
active

// next record `COc1ccc([C@@H]2Sc3ccccc3NC(=O)[C@@H]2O)cc1`
inactive

Item: `COc1cc2c(cc1OC)-c1cc(=Nc3c(C)cc(C)cc3C)n(C)c(=O)n1CC2`
active

Now this one: `NC(=O)Cc1cccc(C(=O)c2ccccc2)c1N`
inactive

Entry `Cc1c(C)n(CCN(C)C)c2ccc(C(=O)OCCN(C)C)cc12` please
active

Now the same for CC(Cc1cccc(C(F)(F)F)c1)NCCOC(=O)c1ccccc1 (stereo not drawn)
active

Please answer likewise for `NCCc1cnc[nH]1`
inactive

Now consider `CCC(=O)c1ccc2c(c1)N(CCCN(C)C)c1ccccc1S2` .
active

Now give it for CN1C(=O)CC(c2ccccc2)C1=O (stereo not drawn) too.
inactive

Follow-up item: `Cc1cc(C2CCCCC2)n(O)c(=O)c1`
active

Input C=CCOc1ccccc1OCC(O)CNC(C)C (stereo not drawn)
active

Now give it for `OC(c1ccccc1)(c1ccccc1)C1CCNCC1` too.
active

Also, OCC(O)CS (stereo not drawn) please.
inactive

---

# Potency listing for each entry below
- protocol: Cell Viability - MRC5 (AID 434);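 note: potency is the fitted concentration of half-maximal effect; cells exposed to compound for 40 hours at 37 °C; potency reflects cytotoxicity seen as loss of intracellular ATP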
- measurementContext: MRC5 lung fibroblast viability, qHTS
Results filed as inconclusive are left out. Active and inactive are the calls of the source. Calls follow the shape of the full dose curve.

Examples with answers:
compound	Potency
C[C@@H]1C[C@@H]([C@H](O)CC2CC(=O)NC(=O)C2)C(=O)[C@@H](C)C1	> 92 µM (inactive)
CCCCCCCCCCCC[N+](C)(C)CCOc1ccccc1	14.5 µM (active)
Oc1c(Br)cc(Br)cc1Br	> 92 µM (inactive)
CN(C)C(=S)SSC(=S)N(C)C	13.2 µM (active)

# input for lookup
So what's the measured Potency for this one? `CNC(=O)Oc1cccc2ccccc12`
> 92 µM (inactive)
